Record set: IC50 | Pancreatic triacylglycerol lipase (Sus scrofa) | literature, multiple sources.
Write the number in µM without appending the unit.

Recorded results for 9 molecules are shown here.
{"molecule": "O=C(OC[C@H]1O[C@@H](OC(=O)c2cc(O)c(O)c(O)c2)[C@H](OC(=O)c2cc(O)c(O)c(O)c2)[C@@H](O)[C@@H]1OC(=O)c1cc(O)c(O)c(O)c1)c1cc(O)c(O)c(O)c1", "unit-symbol": "µM", "IC50": 23.2}
{"molecule": "O=C(OC[C@H]1O[C@@H](OC(=O)c2cc(O)c(O)c(O)c2)[C@H](OC(=O)c2cc(O)c(O)c(O)c2)[C@@H](OC(=O)c2cc(O)c(O)c(O)c2)[C@@H]1OC(=O)c1cc(O)c(O)c(O)c1)c1cc(O)c(O)c(O)c1", "unit-symbol": "µM", "IC50": 15.9}
{"molecule": "CCCCCC[C@@H](OC(=O)[C@](OC)(c1ccccc1)C(F)(F)F)C1=C[C@@]2(CC=C(C)C)C(=O)O[C@H]2C1", "unit-symbol": "µM", "IC50": 0.03}
{"molecule": "O=C(/C=C/c1ccc(O)c(O)c1)O[C@H]1[C@H](O)C[C@](O)(C(=O)O)C[C@H]1OC(=O)/C=C/c1ccc(O)c(O)c1", "unit-symbol": "µM", "IC50": 234}
{"molecule": "Brc1ccc(C=NCCN2CCNCC2)s1", "unit-symbol": "µM", "IC50": 524}
{"molecule": "O=c1cc(-c2ccc(O)c(O)c2)oc2c([C@@H]3O[C@H](CO)[C@@H](O)[C@H](O)[C@H]3O)c(O)cc(O)c12", "unit-symbol": "µM", "IC50": 31.6}
{"molecule": "O=C(/C=C/c1ccc(O)cc1)OC[C@H]1O[C@@H](Oc2cc(O)c3c(c2)OC(c2ccc(O)cc2)CC3=O)[C@H](O)[C@@H](O)[C@@H]1O (stereo partly shown)", "unit-symbol": "µM", "IC50": 2.25}
{"molecule": "C(=N\\CCN1CCNCC1)/c1cccs1", "unit-symbol": "µM", "IC50": 2240}
{"molecule": "CCCCCCCCNC(=O)[C@@H](NC(=O)OC(C)(C)C)[C@@H](C)CC", "unit-symbol": "µM", "IC50": 475}

As a next step, examine the molecule that follows.
The molecule identified as `CCCCCCNC(=O)[C@@H](NC(=O)OC(C)(C)C)[C@@H](C)CC` registered its IC50 at 167
